Reference source for all entries: patent US20190300605A1

# assay target: T1, MAdCAM-IgG1 Fc fusion protein (human)
# T1 construct: Made in CHO-DHFR cells; also called MAdCAM-IgFc
# T1 sequence (chain, as listed by the source limits assumed): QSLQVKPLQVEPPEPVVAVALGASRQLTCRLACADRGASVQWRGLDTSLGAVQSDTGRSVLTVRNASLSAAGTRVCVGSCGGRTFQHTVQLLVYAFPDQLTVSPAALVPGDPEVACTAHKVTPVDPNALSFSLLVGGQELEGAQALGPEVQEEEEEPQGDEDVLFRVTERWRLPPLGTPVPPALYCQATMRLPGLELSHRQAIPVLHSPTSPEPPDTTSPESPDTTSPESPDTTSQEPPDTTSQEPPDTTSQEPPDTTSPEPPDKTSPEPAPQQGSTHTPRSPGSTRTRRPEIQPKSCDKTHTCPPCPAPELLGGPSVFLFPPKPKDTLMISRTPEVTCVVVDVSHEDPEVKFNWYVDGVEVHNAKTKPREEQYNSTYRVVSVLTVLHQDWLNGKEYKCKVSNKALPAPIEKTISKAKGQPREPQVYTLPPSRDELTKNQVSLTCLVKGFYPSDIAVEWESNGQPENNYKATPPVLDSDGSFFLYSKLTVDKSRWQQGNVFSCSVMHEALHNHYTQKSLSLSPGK
# measurement description: SPR BIAcore protocol 2: mAb amine-coupled, MAdCAM-IgG1 Fc injected
measurement name: Kd

anti-MAdCAM monoclonal antibody 6.34.2 (antibody, human IgG4, kappa, V domains shown, human IgG4 kappa from hybridoma 6.34.2) VH: QVQLVESGGGVVQPGRSLRLSCAASGFTFSSYGMHWVRQAPGKGLEWVAVISNDGNNKYYADSVKGRFTISRDNSKNTLYLQMNSLSAEDTAVYYCARDSTAITYYYYGMDVWGQGTTVTVSS VL: DIQMTQSPSSLSASVGDRVTITCRASQNISSYLNWFQQKPGKAPKLLIYAASGLKRGVPSRFSGSGSGTDFTLTIRTLQPDDFATYSCHQSYSLPFTFGPGTKVDIKR: < 0.015 nM
